Each recorded value in this set is attributed to patent EP1908472A1.

- Measurement protocol: Hydrolytic stability of 19F fluorosilanes (hydrolysis to the hydroxy compound) at physiological pH
- Assay type: physicochemical
- Run conditions: ratio of hydrolytic halflife to radioactive halflife of 18-F (1.83 hours), pH 7.0
- Method: The time dependent degree of hydrolysis of compounds of formula I in which X is a fluorine atom of isotope 19 to compounds of formula I in which X is a hydroxy group was determined at physiological pH (7.0). From the kinetics the hydrolytic halflife (t1/2) measured in hours [h] of compounds of formula I in which X is a fluorine atom of isotope 19 were calculated (Table 1, column 2). […]
Property measured: rel. stability

• CC(C)C[Si](F)(CC(C)C)c1ccc(CC(=O)O)cc1 = 4.8
• CC(C)[Si](F)(c1ccc(CCCOC2CCCCO2)cc1)C(C)C (racemic) = 54.6
• CC(C)C[Si](F)(CC(C)C)c1ccc(C(=O)O)cc1 = 1.9
• CC(C)C[Si](F)(CC(C)C)c1ccc(COC2CCCCO2)cc1 (racemic) = 4.5
• CC(C)[Si](F)(c1ccc(COC2CCCCO2)cc1)C(C)C (racemic) = 27.0
• CC(C)[Si](F)(c1cccc(CCO)c1)C(C)C = 12.7
• CC(C)C[Si](F)(CC(C)C)c1ccc(CCOC2CCCCO2)cc1 (racemic) = 10.7
• F[Si](c1ccccc1)(c1ccccc1)c1ccc(CCOC2CCCCO2)cc1 (racemic) = 0.04
• CC(C)[Si](F)(c1cccc(CCC(=O)O)c1)C(C)C = 12.1
• CC(C)[Si](F)(c1ccc(CO)cc1)C(C)C = 15.4
• CC(C)[Si](F)(c1ccc(CCOC2CCCCO2)cc1)C(C)C (racemic) = 41.8
